Target: T1, human CD276 protein (human, UniProt Q5ZPR3 29-534)
T1 construct: whole, on cells; for SKOV3 and the other cancer lines the protein is the cells' own; also called B7-H3; B7H3
T1 sequence (looked up): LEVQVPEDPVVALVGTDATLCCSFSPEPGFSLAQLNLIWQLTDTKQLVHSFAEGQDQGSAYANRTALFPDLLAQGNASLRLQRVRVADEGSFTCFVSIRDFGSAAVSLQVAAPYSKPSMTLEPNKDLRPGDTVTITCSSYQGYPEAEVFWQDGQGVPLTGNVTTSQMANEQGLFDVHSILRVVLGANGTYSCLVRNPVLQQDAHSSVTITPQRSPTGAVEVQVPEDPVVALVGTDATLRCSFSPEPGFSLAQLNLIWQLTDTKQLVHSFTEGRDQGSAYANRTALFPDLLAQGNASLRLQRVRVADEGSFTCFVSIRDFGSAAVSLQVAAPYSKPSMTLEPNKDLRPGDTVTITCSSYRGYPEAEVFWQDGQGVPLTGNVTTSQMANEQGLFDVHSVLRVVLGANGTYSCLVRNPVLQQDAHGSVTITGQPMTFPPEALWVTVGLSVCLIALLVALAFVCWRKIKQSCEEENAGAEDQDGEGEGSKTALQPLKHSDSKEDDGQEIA
Experiment: FACS on CHO-S-hCD276 cells
parameter_measured: FACS MFI
A bare number is all that is needed in reply.

INPUT: I am curious: what FACS MFI value has been reported for 9-E8-F9-C10 (antibody, V domains shown, mouse monoclonal antibody (hybridoma)) VH: EVQLQQSGAELVRPGTSVKISCKASGYAFSDYWLSWVKQRPGHGLEWIGDICPGSGNIYYNERFKDKVILTADRSSSTAYLQFSSLTSEDSVVYFCTRLITRVIDYWGQGTSVTVST VL: ENVLTQSPAIMSASPGEKVTMTCSASSSVNYMHWYQQKSSTSPKLWIYDTSKLSSGVPGRFSGSGSGNSYSLTISSMEAEDVATYYCFQGSGYPLTFGAGTKLELK ?
OUTPUT: 7610

INPUT: Please do the same for 23-F10-G4-F11 (antibody, V domains shown, mouse monoclonal antibody (hybridoma)) VH: EVQLQESGPDLVRPGALVKLSCKSSGFNIKDYPIHWVRQRPEQGLEWIGWFDPDNGNVIYDPRFQGKASITADTSSNTAYLQLNSLTSEDTAVYYCSSPYGAMDYWGQGTSVTVSS VL: QIVLTQSPEIMSASPGEKVTMTCSASSSVSYIHWYQQKSGTSPKRWIYDTSKLASGVPARFSGSGSGTSYSLTIRSMEAEDAATYYCQQGSSNPRTFGGGTKLEIK as well.
OUTPUT: 127000

INPUT: Same question, 10-G6-C4-B2 (antibody, V domains shown, mouse monoclonal antibody (hybridoma)) VH: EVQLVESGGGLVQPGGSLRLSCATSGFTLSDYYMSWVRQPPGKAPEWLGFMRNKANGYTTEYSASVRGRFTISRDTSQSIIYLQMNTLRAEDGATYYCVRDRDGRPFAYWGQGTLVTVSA VL: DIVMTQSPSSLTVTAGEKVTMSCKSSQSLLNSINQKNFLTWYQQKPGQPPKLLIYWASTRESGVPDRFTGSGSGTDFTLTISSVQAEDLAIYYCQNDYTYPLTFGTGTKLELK this time
OUTPUT: 5650

Origin of values: patent US20240400689A1
